- measured target: Gal-1 (Homo sapiens, UniProt P09382)
- Sequence (P09382 whole entry): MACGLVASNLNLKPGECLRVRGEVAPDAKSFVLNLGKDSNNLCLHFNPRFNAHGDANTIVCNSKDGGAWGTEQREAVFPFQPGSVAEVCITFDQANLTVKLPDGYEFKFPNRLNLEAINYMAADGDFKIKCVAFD
- assay info: Fluorescence anisotropy assay, compound as inhibitor of galectin / fluorescein tagged saccharide probe interaction
pKd: −log10 of the molar value.
reported endpoint: pKd

mol_smiles=Cc1csc(-c2cn([C@H]3[C@@H](O)[C@@H](CO)O[C@@H](c4nnc(C)n4-c4cc(Cl)ccc4C(F)(F)F)[C@@H]3O)nn2)n1 reported_endpoint=pKd result_value=5.68
mol_smiles=Cc1nc2ccc(-n3cnnc3[C@@H]3O[C@H](CO)[C@H](O)[C@H](n4cc(-c5nc(Cl)cs5)nn4)[C@H]3O)cc2s1 reported_endpoint=pKd result_value=6.12

(1) Cc1nnc([C@@H]2O[C@H](CO)[C@H](O)[C@H](n3cc(-c4csc(O)n4)nn3)[C@H]2O)n1-c1cc(Cl)ccc1C(F)(F)F
(2) Cc1nnc([C@@H]2O[C@H](CO)[C@H](O)[C@H](n3cc(-c4nccs4)nn3)[C@H]2O)n1-c1cc(Cl)ccc1C(F)(F)F
(3) Cc1nc2ccc(-n3cnnc3[C@@H]3O[C@H](CO)[C@H](O)[C@H](n4cc(-c5csc(O)n5)nn4)[C@H]3O)cc2s1
(4) Cc1nc([C@@H]2O[C@H](CO)[C@H](O)[C@H](n3cc(-c4csc(N)n4)nn3)[C@H]2O)n(-c2ccc3nc(C)sc3c2)n1
(5) Cc1nc2ccc(-n3cnnc3[C@@H]3O[C@H](CO)[C@H](O)[C@H](n4cc(-c5csc(N)n5)nn4)[C@H]3O)cc2s1
Q: Arrange by pKd, high to low. Use the labels to give the requested order.
Result: 1, 3, 2, 5, 4
(1: 6.72, 3: 6.49, 2: 6.16, 5: 5.80, 4: 5.49)

* * *

- measured target: Gal-1 (Homo sapiens, UniProt P09382)
- assay info: Fluorescence anisotropy assay, compound as inhibitor of galectin / fluorescein tagged saccharide probe interaction
- Method: The affinity of Example 1-29 for galectins were determined by a fluorescence anisotropy assay where the compound was used as an inhibitor of the interaction between galectin and a fluorescein tagged saccharide probe as described Sörme, P., Kahl-Knutsson, B., Huflejt, M., Nilsson, U. J., and Leffler H. (2004) Fluorescence polarization as an analytical tool to evaluate galectin-ligand interactions. […]
reported endpoint: Kd (nM)

(a) Cc1nc([C@@H]2O[C@H](CO)[C@H](O)[C@H](n3cc(-c4cncs4)nn3)[C@H]2O)n(-c2ccc3nc(C)sc3c2)n1
(b) Cc1nc2ccc(-n3nccc3[C@@H]3OC(CO)[C@H](O)C(n4cc(-c5nc(Cl)cs5)nn4)C3O)cc2s1 (stereo partly drawn)
(c) Cc1nc2ccc(-n3c(C)nnc3[C@@H]3O[C@H](CO)[C@H](O)[C@H](n4cc(-c5nc(Cl)cs5)nn4)[C@H]3O)cc2s1
Q: Consider the compounds listed above. Rank them by Kd in ascending numerical order. Use the labels to give the requested order.
Result: b, c, a
(b: 33 nM, c: 590 nM, a: 19500 nM)

* * *

- measured target: Gal-3 (Homo sapiens)
- Sequence (P17931 whole entry): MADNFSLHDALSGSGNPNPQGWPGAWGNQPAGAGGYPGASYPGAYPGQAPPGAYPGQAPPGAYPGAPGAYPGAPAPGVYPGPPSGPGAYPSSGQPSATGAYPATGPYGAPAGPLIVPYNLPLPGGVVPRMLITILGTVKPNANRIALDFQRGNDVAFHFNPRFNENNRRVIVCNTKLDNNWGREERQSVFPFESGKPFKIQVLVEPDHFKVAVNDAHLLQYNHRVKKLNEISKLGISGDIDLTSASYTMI
- assay info: Fluorescence anisotropy assay, compound as inhibitor of galectin / fluorescein tagged saccharide probe interaction
- Procedure: The affinity of Example 1-29 for galectins were determined by a fluorescence anisotropy assay where the compound was used as an inhibitor of the interaction between galectin and a fluorescein tagged saccharide probe as described Sörme, P., Kahl-Knutsson, B., Huflejt, M., Nilsson, U. J., and Leffler H. (2004) Fluorescence polarization as an analytical tool to evaluate galectin-ligand interactions. […]
reported endpoint: Kd (nM)

(I) Cc1nc([C@@H]2O[C@H](CO)[C@H](O)[C@H](n3cc(-c4nc(Cl)cs4)nn3)[C@H]2O)n(-c2ccc3nc(C)sc3c2)n1
(II) Cc1nnc([C@@H]2O[C@H](CO)[C@H](O)[C@H](n3cc(-c4csc(O)n4)nn3)[C@H]2O)n1-c1cc(Cl)ccc1C(F)(F)F
Q: Sort I and II by Kd descending and give the first. Write down the label of the entry you select.
Result: II
(II: 520 nM, I: 140 nM)

(a) Cc1nc2ccc(-n3nccc3[C@@H]3OC(CO)[C@H](O)C(n4cc(-c5nc(Cl)cs5)nn4)C3O)cc2s1 (some centres unmarked)
(b) Cc1nc([C@@H]2O[C@H](CO)[C@H](O)[C@H](n3cc(-c4cncs4)nn3)[C@H]2O)n(-c2ccc3nc(C)sc3c2)n1
Q: Sort a and b by Kd descending and give the first. Write down the label of the entry you select.
Result: b
